B1: STEAP1 (parent)
chain: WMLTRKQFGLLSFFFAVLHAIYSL

# Variants of: B1
# Assay Procedure: protein stability index of a GFP-peptide fusion (GPS, HEK-293T) (PSI 1-6); higher = more stable;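 also: lentivirally expressed fusions sorted by FACS into six bins by GFP to DsRed ratio, PSI derived from sequencing read proportions per bin multiplied by bin number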
# Test Conditions: c terminus: a fixed tail appended
Quantity Kind: protein stability index

Input: Could you tell me which protein stability index is on file for S12I ?
Output: 1.61

Input: Could you tell me which protein stability index is on file for Q7G ?
Output: 1.78

Input: Could you tell me which protein stability index is on file for L11W ?
Output: 1.72

Input: Could you tell me which protein stability index is on file for L10M ?
Output: 1.83

Input: Could you tell me which protein stability index is on file for F14V ?
Output: 1.69

Input: Could you tell me which protein stability index is on file for L18F ?
Output: 1.63

Input: Could you tell me which protein stability index is on file for I21Q ?
Output: 1.61

Input: Could you tell me which protein stability index is on file for L3C ?
Output: 3.54

Input: Could you tell me which protein stability index is on file for H19G ?
Output: 2.77

Input: Could you tell me which protein stability index is on file for Q7H ?
Output: 2.53

Input: Could you tell me which protein stability index is on file for F8L ?
Output: 2.04

Input: Could you tell me which protein stability index is on file for S12M ?
Output: 1.67

Input: Could you tell me which protein stability index is on file for L24N ?
Output: 1.98

Input: Could you tell me which protein stability index is on file for S23G ?
Output: 1.48

Input: Could you tell me which protein stability index is on file for L10F ?
Output: 1.85

Input: Could you tell me which protein stability index is on file for L11N ?
Output: 3.38

Input: Could you tell me which protein stability index is on file for T4D ?
Output: 1.66

Input: Could you tell me which protein stability index is on file for H19F ?
Output: 2.76

Input: Could you tell me which protein stability index is on file for F8E ?
Output: 1.64

Input: Could you tell me which protein stability index is on file for V17K ?
Output: 2.53

Input: Could you tell me which protein stability index is on file for V17I ?
Output: 1.73

Input: Could you tell me which protein stability index is on file for F8S ?
Output: 1.84
